# assayed system: Solute carrier family 22 member 12 (Homo sapiens)
# Sequence (Q96S37 whole entry): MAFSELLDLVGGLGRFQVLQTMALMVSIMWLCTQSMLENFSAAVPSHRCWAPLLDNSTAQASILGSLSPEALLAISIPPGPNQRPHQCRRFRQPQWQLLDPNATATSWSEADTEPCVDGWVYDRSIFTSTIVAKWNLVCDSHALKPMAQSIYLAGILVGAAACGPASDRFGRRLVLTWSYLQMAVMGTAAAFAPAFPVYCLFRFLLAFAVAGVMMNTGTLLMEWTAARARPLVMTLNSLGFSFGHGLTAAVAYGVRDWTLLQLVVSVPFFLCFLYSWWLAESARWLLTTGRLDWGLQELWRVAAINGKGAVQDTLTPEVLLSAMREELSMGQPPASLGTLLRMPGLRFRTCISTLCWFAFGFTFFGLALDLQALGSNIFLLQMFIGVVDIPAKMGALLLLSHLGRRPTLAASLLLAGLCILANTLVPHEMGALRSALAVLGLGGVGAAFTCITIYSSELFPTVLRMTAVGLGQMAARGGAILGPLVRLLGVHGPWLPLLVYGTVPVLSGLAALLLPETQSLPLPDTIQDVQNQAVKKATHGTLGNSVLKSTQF
# test summary: Inhibition of URAT1 (unknown origin) expressed in HEK293 cells at 10 uM using 14C-uric acid as substrate relative to control
# Assay type: cell-based
quantity measured: inhibition at 10 µM

O=C(O)CCCN(c1ccc(F)cc1)c1ccnc2ccc(C(F)(F)F)cc12
93%
O=C(O)CCCN(c1cccc(F)c1)c1ccnc2ccccc12
88%
O=C(O)CCCN(c1cccc(F)c1)c1ccnc2ccc(-c3ccc4ccccc4c3)cc12
86%
O=C(O)CCCCCN(c1cccc(F)c1)c1ccnc2ccc(C(F)(F)F)cc12
88%
O=C(O)CCCN(c1cccc(F)c1)c1ccnc2cc(Cl)ccc12
80%
O=C(O)CCCN(c1ccccc1)c1ccnc2ccc(C(F)(F)F)cc12
96%
O=C(O)CCCN(c1cccc(Cl)c1)c1ccnc2ccc(C(F)(F)F)cc12
72%
O=C(O)CCCN(c1ccc(Cl)cc1)c1ccnc2ccc(C(F)(F)F)cc12
91%
O=C(O)CCCN(c1cccc(F)c1)c1ccnc2ccc(-c3ccccc3)cc12
90%
O=C(O)CCCN(c1cccc(-c2ccccc2)c1)c1ccnc2ccc(C(F)(F)F)cc12
19%
